test.details: osmotic lysis modulators in infected erythrocytes, primary screen, PSAC antagonist project, cell-based, P. falciparum Indochina, OD700, 3 h (AID 1156)
condition.summary: called active from +8 up or from −8 down
Activity calls are given as the source filed them.
# output must be one of active, inactive

# example entries with known answers
compound | label.class
COC(=O)[C@@]1(Cc2ccccc2)[C@H]2c3cc(C(=O)N4CCCC4)n(CC4CC4)c3C[C@H]2CN1C(=O)c1ccccc1 | inactive
COCCOC(=O)N1C(=O)[C@@]2(c3cc(C#CC4=CCCCC4)ccc31)[C@H](C(=O)Nc1nc3ccccc3s1)[C@H]1C(=O)O[C@H](c3ccccc3)[C@H](c3ccccc3)N1[C@@H]2c1ccccc1OCCO | inactive
COCCOC(=O)N1C(=O)[C@@]2(c3cc(C#CCCO)ccc31)[C@H](C(=O)N1CCN(c3ncccn3)CC1)[C@H]1C(=O)O[C@H](c3ccccc3)[C@H](c3ccccc3)N1[C@@H]2c1ccccc1OCCO | inactive
COc1ccc([Si](C)(C)[C@@H]2[C@@H](CCO)O[C@]3(C(=O)N(Cc4ccc(N5C(=O)COc6ccccc65)cc4)c4ccccc43)[C@H]2C)cc1 | inactive
COCCOC(=O)N1C(=O)[C@@]2(c3cc(C#CC4=CCCCC4)ccc31)[C@H](C(=O)Nc1nc3ccccc3s1)[C@H]1C(=O)O[C@H](c3ccccc3)[C@H](c3ccccc3)N1[C@@H]2c1ccc(OCCO)cc1 | inactive
O=C1[C@H]2C=C(Br)[C@H](C[C@@H]2c2ccccc2)[C@@]12CO2 | inactive
COc1cc2c(cc1O)C(C1CC1)N(Cc1cc3c(cc1Br)OCO3)CC2 (stereo not drawn) | inactive
CC(=O)NCCCC[C@@H]1NC(=O)[C@@H]2C[C@H](C(=O)NCCCCN(C)C)[C@H](c3cccc(OCCO)c3)N2C1=O | inactive
O=C1c2ccccc2[C@](Cc2ccccc2I)(C(=O)NC2CC2)[C@H](c2ccc(CO)cc2)N1Cc1ccccc1 | inactive
COCCCNC(=O)[C@@]1(Cc2ccccc2)N=C(c2ccc(OCCCO)cc2)O[C@H]1c1ccccc1 | inactive

# fetch the recorded call for COCC(=C=CC[C@H](O)c1ccccc1OCCO)C[C@H](O)c1cc(Cl)cc(Cl)c1O here
active

# fetch the recorded call for C=CCN1C(=O)[C@@]2(O[C@@H](CCO)[C@H]([Si](C)(C)c3ccc(OC)cc3)[C@H]2C)c2cc(NC(=O)c3ccc(OC)cc3)ccc21 here
inactive

# fetch the recorded call for CCOC(=O)C[C@H]1[C@H](OC(=O)c2cc3ccccc3oc2=O)[C@@H](NC(=O)C2CCCCC2)c2cc(OCCCO)ccc2N1C(=O)c1ccccc1 here
inactive

# fetch the recorded call for COc1ccc(C#Cc2ccc3c(c2)[C@]2(C(=O)N3)[C@H](c3ccccc3OCCO)N3[C@H](c4ccccc4)[C@H](c4ccccc4)OC(=O)[C@H]3[C@@H]2C(=O)O)cc1 here
inactive

# fetch the recorded call for O=C1C[C@]2(c3ccc([N+](=O)[O-])cc3)C(=O)N(CCN3CCOCC3)c3cc(CO)ccc3[C@H]2N1C1CCCCC1 here
inactive

# fetch the recorded call for C=CCOC(=O)[C@@H]1[C@H]2C(=O)O[C@H](c3ccccc3)[C@H](c3ccccc3)N2[C@H](c2ccc(OCCOC(=O)[C@@H]3C[C@@H]4C(=O)N[C@@H](CCCC[N+](C)(C)C)C(=O)N4[C@@H]3c3cccc(OCCO)c3)cc2)[C@@]12C(=O)Nc1ccc(I)cc12 here
inactive

# fetch the recorded call for CN(C)C(=O)[C@]1(Cc2ccccc2N=[N+]=[N-])N=C(c2ccc(OCCCO)cc2)O[C@@H]1c1ccccc1 here
inactive

# fetch the recorded call for C=CCNC(=O)[C@H]1[C@@H]2C(=O)O[C@@H](c3ccccc3)[C@@H](c3ccccc3)N2[C@@H](c2ccc(OCCO)cc2)[C@]12C(=O)Nc1ccc(C#CC3=CCCCC3)cc12 here
inactive

# fetch the recorded call for O=C1NC(=O)C2C1C=CC(C(O)c1cccc3ccccc13)N2Nc1ccccn1 (stereo not drawn) here
inactive

# fetch the recorded call for CN1C(=O)C2C=CC(C(O)c3cccs3)N(Nc3ccccc3)C2C1=O (stereo not drawn) here
inactive

# fetch the recorded call for CCCN1C(=O)[C@]2(CCS(=O)(=O)c3ccccc3)N=C(c3ccc(OCCCO)cc3)O[C@@H]2c2ccccc21 here
inactive

# fetch the recorded call for C#CCN(CC1=CCCCC1)[C@H](c1ccccc1Br)[C@@H](O)Cc1ccccc1 here
inactive

# fetch the recorded call for O=C(O)[C@@]1(CCS(=O)(=O)c2ccccc2)COC(c2ccc(OCCCO)cc2)=N1 here
inactive

# fetch the recorded call for CCCC[C@@H]1C[C@H]1[C@@H](NC(=O)c1ccco1)c1ccc(C(=O)OC)cc1 here
inactive

# fetch the recorded call for [N-]=[N+]=Nc1ccccc1[C@H]1OC(c2ccc(OCCCO)cc2)=N[C@@]1(Cc1ccccc1)C(=O)O here
inactive

# fetch the recorded call for CCc1oc(CC[C@@H](CO)NC(=O)NCCn2cc(C3(O)CCCCC3)nn2)c(C(=O)OC)c1C(=O)OC here
inactive

# fetch the recorded call for O=C1[C@H]2C=C(Br)[C@H](C[C@@H]2OCCCCO)[C@@]12CO2 here
inactive

# fetch the recorded call for CC1(C)[C@@H]2CC(C(O)C3C=CC4C(=O)N(c5ccccc5)C(=O)C4N3Nc3ccccc3)=C[C@H]1C2 (stereo partly drawn) here
inactive
